From: paper PMC11277932

System: Dirofilaria immitis microfilariae
TEST CONDITIONS: pure compounds; ~72 h
Square brackets hold non-standard residues; d marks the D form. Peptide text beside a SMILES is read from it. * marks the point of attachment. d(aIle) = CC[C@H](C)[C@@H](N)C(=O)O; hArg = N=C(N)NCCCC[C@H](N)C(=O)O; Lys(Me) = CNCCCC[C@H](N)C(=O)O; Propionyl = CCC(=O)*; Bz = O=C(c1ccccc1)*; For = O=C*
TEST READOUT: D. immitis mf Motility EC50

Use these answered entries as a reference point.
[[record]]
molecule = "CC[C@H](C)[C@@H]1NC(=O)[C@H](CCCCNC(=O)c2ccccc2)NC(=O)[C@@H]([C@@H](C)CC)NC(=O)[C@H]([C@@H](C)CC)NC(=O)[C@@H](C)NC(=O)[C@H]([C@@H](C)CC)NC(=O)[C@@H](CC(C)C)NC(=O)[C@@H](Cc2ccccc2)NC1=O [acyl-surugamide AS3 (15), acyl-surugamide AS3] (cyclo(I[d(aIle)]K(Bz)I[dF][dL]I[dA]))"
observed = "3.4 µg/mL"

[[record]]
molecule = "CC[C@H](C)[C@@H]1NC(=O)[C@H](CCCCNC(=N)N)NC(=O)[C@@H]([C@@H](C)CC)NC(=O)[C@H]([C@@H](C)CC)NC(=O)[C@@H](C)NC(=O)[C@H]([C@@H](C)CC)NC(=O)[C@@H](CC(C)C)NC(=O)[C@@H](Cc2ccccc2)NC1=O [surugamide S4 (12), surugamide S4] (cyclo(I[d(aIle)][hArg]I[dF][dL]I[dA]))"
observed = ">25 µg/mL"

[[record]]
molecule = "CC[C@H](C)[C@@H]1NC(=O)[C@H](CCCCNC(C)=O)NC(=O)[C@@H]([C@@H](C)CC)NC(=O)[C@H]([C@@H](C)CC)NC(=O)[C@@H](C)NC(=O)[C@H]([C@@H](C)CC)NC(=O)[C@@H](CC(C)C)NC(=O)[C@@H](Cc2ccccc2)NC1=O [acyl-surugamide A2 (6), acyl-surugamide A2] (cyclo(I[d(aIle)]K(Ac)I[dF][dL]I[dA]))"
observed = ">25 µg/mL"

[[record]]
molecule = "CC[C@H](C)[C@@H]1NC(=O)[C@H](CCCCNC)NC(=O)[C@@H]([C@@H](C)CC)NC(=O)[C@H]([C@@H](C)CC)NC(=O)[C@@H](C)NC(=O)[C@H]([C@@H](C)CC)NC(=O)[C@@H](CC(C)C)NC(=O)[C@@H](Cc2ccccc2)NC1=O [surugamide K (4), surugamide K] (cyclo(I[d(aIle)][Lys(Me)]I[dF][dL]I[dA]))"
observed = ">25 µg/mL"


Give a short answer stating reported D. immitis mf Motility EC50 for CC[C@@H](C)[C@H]1NC(=O)[C@H]([C@@H](C)CC)NC(=O)[C@@H](C)NC(=O)[C@H]([C@@H](C)CC)NC(=O)[C@@H](CC(C)C)NC(=O)[C@@H](Cc2ccccc2)NC(=O)[C@H]([C@@H](C)CC)NC(=O)[C@H](CCCCN)NC1=O [surugamide S1 (9)] (cyclo(I[dI]KI[dF][dL]I[dA])) .
>25 µg/mL

Give a short answer stating reported D. immitis mf Motility EC50 for CC[C@H](C)[C@@H]1NC(=O)[C@H](CCCCNC=O)NC(=O)[C@@H]([C@@H](C)CC)NC(=O)[C@H]([C@@H](C)CC)NC(=O)[C@@H](C)NC(=O)[C@H]([C@@H](C)CC)NC(=O)[C@@H](CC(C)C)NC(=O)[C@@H](Cc2ccccc2)NC1=O [acyl-surugamide A1 (5), acyl-surugamide A1] (cyclo(I[d(aIle)]K(For)I[dF][dL]I[dA])) .
>25 µg/mL

Give a short answer stating reported D. immitis mf Motility EC50 for CC[C@H](C)[C@@H]1NC(=O)[C@H](CCCCN)NC(=O)[C@@H]([C@@H](C)CC)NC(=O)[C@H]([C@@H](C)CC)NC(=O)[C@@H](C)NC(=O)[C@H]([C@@H](C)CC)NC(=O)[C@@H](CC(C)C)NC(=O)[C@@H](Cc2ccccc2)NC1=O [surugamide A (3), surugamide A] (cyclo(I[d(aIle)]KI[dF][dL]I[dA])) .
>25 µg/mL

Give a short answer stating reported D. immitis mf Motility EC50 for CCC(=O)NCCCC[C@@H]1NC(=O)[C@@H]([C@@H](C)CC)NC(=O)[C@H]([C@@H](C)CC)NC(=O)[C@@H](C)NC(=O)[C@H]([C@@H](C)CC)NC(=O)[C@@H](CC(C)C)NC(=O)[C@@H](Cc2ccccc2)NC(=O)[C@H]([C@@H](C)CC)NC1=O [acyl-surugamide A3 (7), acyl-surugamide A3] (cyclo(I[d(aIle)]K(Propionyl)I[dF][dL]I[dA])) .
3.3 µg/mL

Give a short answer stating reported D. immitis mf Motility EC50 for CC[C@H](C)[C@@H]1NC(=O)[C@H](CCCNC(=N)N)NC(=O)[C@@H]([C@@H](C)CC)NC(=O)[C@H]([C@@H](C)CC)NC(=O)[C@@H](C)NC(=O)[C@H]([C@@H](C)CC)NC(=O)[C@@H](CC(C)C)NC(=O)[C@@H](Cc2ccccc2)NC1=O [surugamide S2 (10), surugamide S2] (cyclo(I[d(aIle)]RI[dF][dL]I[dA])) .
> 25 µg/mL

----------
Overview of reported D. immitis mf Motility EC50 across a group of compounds:
Test system: Dirofilaria immitis microfilariae
TEST CONDITIONS: pure compounds; ~72 h
Square brackets hold non-standard residues; d marks the D form. Peptide text beside a SMILES is read from it. * marks the point of attachment. d(aIle) = CC[C@H](C)[C@@H](N)C(=O)O; Pyruvoyl = CC(=O)C(=O)*; Pentanoyl = CCCCC(=O)*
Dear colleague, please return just the value in µg/mL, with no unit written.

[[record]]
compound = "CC[C@H](C)[C@@H]1NC(=O)[C@H](CCCCNC(=O)C(C)=O)NC(=O)[C@@H]([C@@H](C)CC)NC(=O)[C@H]([C@@H](C)CC)NC(=O)[C@@H](C)NC(=O)[C@H]([C@@H](C)CC)NC(=O)[C@@H](CC(C)C)NC(=O)[C@@H](Cc2ccccc2)NC1=O [acyl-surugamide A4 (8), acyl-surugamide A4] (cyclo(I[d(aIle)]K(Pyruvoyl)I[dF][dL]I[dA]))"
test_readout = "D. immitis mf Motility EC50"
measurement_units = "µg/mL"
observed = 16.0


Next compound, D. immitis mf Motility EC50 to be filled in.
Retrieve D. immitis mf Motility EC50 on Dirofilaria immitis microfilariae; query CCCCC(=O)NCCCC[C@@H]1NC(=O)[C@@H]([C@@H](C)CC)NC(=O)[C@H]([C@@H](C)CC)NC(=O)[C@@H](C)NC(=O)[C@H]([C@@H](C)CC)NC(=O)[C@@H](CC(C)C)NC(=O)[C@@H](Cc2ccccc2)NC(=O)[C@H]([C@@H](C)CC)NC1=O [acyl-surugamide AS1 (13), acyl-surugamide AS1] (cyclo(I[d(aIle)]K(Pentanoyl)I[dF][dL]I[dA]))
21
